- System: Danio rerio larvae (5 dpf)
- PROTOCOL_TEXT: difference in activity during first hour vs DMSO (percentage points); higher = more activity than DMSO
- ASSAY_SETUP: 10 µM; exposure time 6 h
Structures can show the parent of a compound that is named as a salt.
TEST_READOUT: difference in activity during first hour
// no unit, no text: just the number

The measured difference in activity during first hour associated with CC[N+](C)(C)c1cccc(O)c1 [Edrophonium (chloride)] reads 5.67

The measured difference in activity during first hour associated with `O=S(=O)(O)CCS` reads 12.8

The measured difference in activity during first hour associated with c1cc(CN2CCCNCCNCCCNCC2)ccc1CN1CCCNCCNCCCNCC1 [Plerixafor (hydrochloride hydrate)] reads -16

The measured difference in activity during first hour associated with Clc1ccc(CCC(Cn2ccnc2)Sc2c(Cl)cccc2Cl)cc1 (stereo unspecified) [Butoconazole (nitrate)] reads -20.7

The measured difference in activity during first hour associated with CC(C)[C@H](N)C(=O)OCC(CO)OCn1cnc2c(=O)nc(N)[nH]c21 (stereo partly specified) [Valganciclovir (hydrochloride)] reads -5.18

The measured difference in activity during first hour associated with `CO/N=C1\C[C@]2(C[C@@H]3C[C@@H](C/C=C(\C)C[C@@H](C)/C=C/C=C4\CO[C@@H]5[C@H](O)C(C)=C[C@@H](C(=O)O3)[C@]45O)O2)O[C@H](/C(C)=C/C(C)C)[C@H]1C` reads -23

The measured difference in activity during first hour associated with c1ccc2c(CC3=NCCN3)cccc2c1 [Naphazoline (hydrochloride)] reads 0.867

The measured difference in activity during first hour associated with `CC(=O)S[C@@H]1CC2=CC(=O)CC[C@]2(C)[C@H]2CC[C@@]3(C)[C@@H](CC[C@@]34CCC(=O)O4)[C@H]12` reads 0.438

The measured difference in activity during first hour associated with COc1cccc2c1C(=O)c1c(O)c3c(c(O)c1C2=O)C[C@@](O)(C(C)=O)C[C@@H]3O[C@H]1C[C@H](N)[C@H](O)[C@H](C)O1 [Daunorubicin (hydrochloride)] reads -3.27

The measured difference in activity during first hour associated with `CC[C@H](Nc1ncnc2[nH]cnc12)c1nc2cccc(F)c2c(=O)n1-c1ccccc1` reads -0.052

The measured difference in activity during first hour associated with CC1(C)S[C@@H]2[C@H](NC(=O)[C@H](N)c3ccc(O)cc3)C(=O)N2[C@H]1C(=O)O [Amoxicillin (hydrate)] reads 13.1

The measured difference in activity during first hour associated with CC(Oc1c(Cl)cccc1Cl)C1=NCCN1 (stereo unspecified) [Lofexidine (hydrochloride)] reads 2.08

The measured difference in activity during first hour associated with C1N2CN3CN1CN(C2)C3 [Methenamine Hippurate] reads -3.94

The measured difference in activity during first hour associated with CC12CC3CC(C)(C1)CC(N)(C3)C2 [Memantine (hydrochloride)] reads 1.52

The measured difference in activity during first hour associated with CC(=O)Oc1c(C)cc(OCC(O)CNC(C)C)c(C)c1C (stereo unspecified) [Metipranolol (hydrochloride)] reads -3.92

The measured difference in activity during first hour associated with Cc1cn[nH]c1 [Fomepizole] reads 3.73

----------
- Test system: Danio rerio larvae (5 dpf)
- PROTOCOL_TEXT: difference in activity during first hour vs DMSO (percentage points); higher = more activity than DMSO
- ASSAY_SETUP: 10 µM; exposure time 6 h
Where a name gives a salt, the structure may show the parent alone.
I'd appreciate it if you could supply difference in activity during first hour values for the items below.
// no unit, no text: just the number

Bench note, Danio rerio larvae (5 dpf): entry `CN1CCC[C@@H]1Cc1c[nH]c2ccc(CCS(=O)(=O)c3ccccc3)cc12` , its difference in activity during first hour = 6.02

Bench note, Danio rerio larvae (5 dpf): entry COc1cc([C@@H]2c3cc4c(cc3[C@@H](O[C@@H]3O[C@@H]5CO[C@@H](C)O[C@H]5[C@H](O)[C@H]3O)[C@H]3COC(=O)[C@H]23)OCO4)cc(OC)c1O [Etoposide] , its difference in activity during first hour = -5.75

Bench note, Danio rerio larvae (5 dpf): entry O=C(NC1CCN(CCCCC2(C(=O)NCC(F)(F)F)c3ccccc3-c3ccccc32)CC1)c1ccccc1-c1ccc(C(F)(F)F)cc1 [Lomitapide] , its difference in activity during first hour = -7.94

Bench note, Danio rerio larvae (5 dpf): entry CN(CCOc1ccc(CC2SC(=O)NC2=O)cc1)c1ccccn1 (configuration not stated) [Rosiglitazone (maleate)] , its difference in activity during first hour = 10.3

Bench note, Danio rerio larvae (5 dpf): entry `Cc1[nH]c2ccccc2c1CCNCc1ccc(/C=C/C(=O)NO)cc1` , its difference in activity during first hour = -8.62

Bench note, Danio rerio larvae (5 dpf): entry CO/N=C(\C(=O)N[C@@H]1C(=O)N2C(C(=O)O)=C(COC(N)=O)CS[C@H]12)c1ccco1 [Cefuroxime (sodium salt)] , its difference in activity during first hour = -6.92

Bench note, Danio rerio larvae (5 dpf): entry CC(C)(C)NC(=O)[C@H]1CC[C@H]2[C@@H]3CC[C@H]4NC(=O)C=C[C@]4(C)[C@H]3CC[C@]12C [Finasteride] , its difference in activity during first hour = 10.8
